# TEST SUMMARY: Toxicokinetic analysis of plasma MMC after pulmonary artery infusion
# EXPERIMENTAL CONDITIONS: Yorkshire, swine, in vivo, elimination half-life, swine, summary over dose groups
ASSAY METRIC: half-life

The compound CO[C@@]12[C@H](COC(N)=O)C3=C(C(=O)C(C)=C(N)C3=O)N1C[C@@H]1N[C@@H]12 showed half-life equal to ~65 min

====

# TEST SUMMARY: Toxicokinetic analysis of plasma MMC after pulmonary artery infusion
# EXPERIMENTAL CONDITIONS: Yorkshire, pig, in vivo, 4 mg
ASSAY METRIC: Cmax (ng/mL)
Quick note: give the figure in ng/mL, leave out the unit.

The molecule CO[C@@]12[C@H](COC(N)=O)C3=C(C(=O)C(C)=C(N)C3=O)N1C[C@@H]1N[C@@H]12 showed Cmax equal to 178

====

# TEST SUMMARY: Toxicokinetic analysis of plasma MMC after pulmonary artery infusion
# EXPERIMENTAL CONDITIONS: Yorkshire, pig, in vivo, 4 mg, β or λ t1/2, swine, 4 mg MMC
ASSAY METRIC: half-life (h)
Quick note: give the figure in h, leave out the unit.

The compound CO[C@@]12[C@H](COC(N)=O)C3=C(C(=O)C(C)=C(N)C3=O)N1C[C@@H]1N[C@@H]12 showed half-life equal to 1.12
